Each entry below carries its reported pKi.
target: rat spinal cord membrane receptor; assay: competition with [125I]D-Tyr-NPFF, rat spinal cord membranes
No end group written: not given here.
Just the number, please.

binder: YLFQPQRF-NH2 (also called Y8Famide; Y-8-F-amide) [Y8Fa]
pKi: 9.19

What value of measured pKi is listed for AGEGLSSPFWSLAAPQRF-NH2 (also called NPAF) [rat A-18-F-amide] ?
9

Record request: pKi value, item APSEPHHPGDQATQDQLAQYYSDLYQYITFVTRPRF (not fully specified; ends and bridges not checked, also called fPP) [Frog pancreatic polypeptide (frog PP) (Rana Temporaria)]
9.12

Given FFRF (ends and bridges not checked) , state its recorded pKi.
8.98
